Cited source for all entries: ChEMBL document CHEMBL3397041

experiment: Antioxidant activity assessed as ABTS scavenging activity after 6 mins by spectrophotometry; type: physicochemical
Recorded endpoint: IC50 (uM/ml)

| Smiles representation | Unit descriptor | Reading |
| --- | --- | --- |
| O=C(CCCc1nc2ccccc2c(=O)[nH]1)N/N=C/c1ccc(O)cc1 | uM/ml | 170 |
| O=C(CCc1nc2ccccc2c(=O)[nH]1)N/N=C/c1ccc(O)cc1 | uM/ml | 105 |
| COC(=O)CCCc1nc2ccccc2c(=O)[nH]1.Cl | uM/ml | 280 |

A = COc1cc(/C=N/NC(=O)CCc2nc3ccccc3c(=O)[nH]2)cc(O)c1O
B = O=C(CCc1nc2ccccc2c(=O)[nH]1)N/N=C/c1ccccc1
C = COc1cc(/C=N/NC(=O)CCCc2nc3ccccc3c(=O)[nH]2)cc(OC)c1OC
D = COc1cc(/C=N/NC(=O)CCc2nc3ccccc3c(=O)[nH]2)ccc1O
Ask | # ascending order, key=IC50 Your reply should list the labels following the order given in the request.
Reply | A, C, D, B

P = COc1cc(/C=N/NC(=O)CCCc2nc3ccccc3c(=O)[nH]2)cc(O)c1O
Q = O=C(CCCc1nc2ccccc2c(=O)[nH]1)N/N=C/c1ccc([N+](=O)[O-])cc1
Ask | Dear colleague, could you let me know whether P or Q has the lower recorded IC50? Thanks. Your choice should be expressed through its label.
Reply | P
(P: 50 uM/ml, Q: 270 uM/ml)
